EC50 overview
assay.target: KCNQ 2/3 channels (HEK293 cells stably expressing human KCNQ2 and KCNQ3 subunits) (Homo sapiens, UniProt O43525+O43526)
protocol.text: KCNQ2/3 channel activation, thallium flux FLIPR assay with BTC-AM dye
condition.summary: HEK293 cells expressing human KCNQ2 and KCNQ3; thallium flux, FLIPR

compound: O=C(CC12CC3CC(CC(C3)C1)C2)Nn1nc(-c2ccccc2)c2ccccc2c1=O
EC50: < 100 nM

compound: Cc1ccc(-c2nn(NC(=O)CC3CC4CCC3C4)c(=O)c3ccccc23)c(C)c1 (racemic)
EC50: < 100 nM

compound: O=C(Cc1ccc(Cl)cc1)Nn1nc(C2CCCCC2)c2ccccc2c1=O
EC50: 100 to 500 nM

compound: O=C(Nn1nc(-c2ccc(Cl)cc2)c2ccccc2c1=O)[C@@H]1C[C@H]1c1ccccc1 (relative stereo)
EC50: 500 to 1000 nM

compound: O=C(CC1CC2CCC1C2)Nn1nc(C2CCCCC2)c2ccccc2c1=O (racemic)
EC50: < 100 nM

compound: O=C(Cc1cccc(Cl)c1)Nn1nc(-c2ccc(Cl)cc2)c2ccccc2c1=O
EC50: 100 to 500 nM

compound: CC1(C)[C@H]2CC[C@@H](CC(=O)Nn3nc(-c4ccccc4)c4ccsc4c3=O)[C@@H]1C2
EC50: 1000 to 10000 nM

compound: O=C(Cc1ccc(Cl)cc1)Nn1nc(-c2ccc(Cl)cc2)c2ccccc2c1=O
EC50: 100 to 500 nM

Query: Note EC50 for the compound shown: O=C(CC12CC3CC(CC(C3)C1)C2)Nn1nc(C(F)(F)F)c2ccccc2c1=O
Reply: 100 to 500 nM

Query: Note EC50 for the compound shown: CC(C)c1ccc(-c2nn(NC(=O)Cc3ccc(Cl)cc3)c(=O)c3ccccc23)cc1
Reply: 500 to 1000 nM

Query: Note EC50 for the compound shown: Cc1nn(NC(=O)Cc2ccc(Cl)cc2)c(=O)c2ccccc12
Reply: 1000 to 10000 nM

Query: Note EC50 for the compound shown: Cc1ccc(-c2nn(NC(=O)CC3CC4CCC3C4)c(=O)c3ccccc23)cc1C (racemic)
Reply: < 100 nM

Query: Note EC50 for the compound shown: O=C(CC1(C(F)(F)F)CCCC1)Nn1nc(-c2ccc(Cl)cc2)c2ccccc2c1=O
Reply: 500 to 1000 nM

====

assay.target: KCNQ 2/3 channels (HEK293 cells stably expressing human KCNQ2 and KCNQ3 subunits) (Homo sapiens, UniProt O43525+O43526)
Construct: expressed in transfected cells; host or cells: HEK293
protocol.text: KCNQ2/3 channel activation, thallium flux FLIPR assay with BTC-AM dye
Type: cell-based
condition.summary: HEK293 cells expressing human KCNQ2 and KCNQ3; thallium flux, FLIPR
EC50 overview

Would you please look over these solved cases?
molecule: O=C(CC12CC3CC(CC(O)(C3)C1)C2)Nn1nc(-c2ccccc2)c2ccsc2c1=O
EC50: > 10000 nM

molecule: O=C(CC1(c2ccccc2)CC1)Nn1nc(C(F)(F)F)c2ccccc2c1=O
EC50: > 10000 nM

molecule: CC(C)c1nn(NC(=O)CC23CC4CC(C)(CC(C)(C4)C2)C3)c(=O)c2ccccc12
EC50: 100 to 500 nM

molecule: Cc1ccc(-c2nn(NC(=O)Cc3cc(F)cc(F)c3)c(=O)c3ccccc23)cc1
EC50: < 100 nM

molecule: CC(C)CCC(=O)Nn1nc(-c2ccc(Cl)cc2)c2ccccc2c1=O
EC50: < 100 nM

molecule: O=C(CC1(c2ccccc2)CCCC1)Nn1nc(-c2ccc(Cl)cc2)c2ccccc2c1=O
EC50: > 10000 nM

Query: Note EC50 for the molecule shown: O=C(Cc1cc(F)cc(F)c1)Nn1nc(Cc2ccccc2)c2ccccc2c1=O
Reply: < 100 nM

Query: Note EC50 for the molecule shown: O=C(CC1CC2CCC1C2)Nn1nc(Cc2ccc(Cl)cc2)c2ccccc2c1=O (racemic)
Reply: < 100 nM

Query: Note EC50 for the molecule shown: O=C(CC1CCCC1)Nn1nc(C(F)(F)F)c2ccccc2c1=O
Reply: 100 to 500 nM

====

EC50 overview
assay.target: KCNQ 2/3 channels (HEK293 cells stably expressing human KCNQ2 and KCNQ3 subunits) (Homo sapiens, UniProt O43525+O43526)
Construct: expressed in transfected cells; host or cells: HEK293
protocol.text: KCNQ2/3 channel activation, thallium flux FLIPR assay with BTC-AM dye
Format: cell-based
condition.summary: HEK293 cells expressing human KCNQ2 and KCNQ3; thallium flux, FLIPR

molecule: CC(C)(CC(=O)Nn1nc(-c2ccccc2)c2ccccc2c1=O)c1ccccc1
EC50: 100 to 500 nM
//
molecule: CC(C)(CC(=O)Nn1nc(C(F)(F)F)c2ccccc2c1=O)c1ccc(Cl)cc1
EC50: 100 to 500 nM
//
molecule: Cc1ccc(-c2nn(NC(=O)Cc3cc(F)cc(F)c3)c(=O)c3ccccc23)c(C)c1
EC50: 100 to 500 nM

Consider now this further compound.
Query: Note EC50 for the compound shown: O=C(Cc1cc(F)cc(F)c1)Nn1nc(-c2ccc(Cl)cc2)c2ccccc2c1=O
Reply: < 100 nM

====

assay.target: KCNQ 2/3 channels (HEK293 cells stably expressing human KCNQ2 and KCNQ3 subunits) (Homo sapiens, UniProt O43525+O43526)
protocol.text: KCNQ2/3 channel activation, thallium flux FLIPR assay with BTC-AM dye
condition.summary: HEK293 cells expressing human KCNQ2 and KCNQ3; thallium flux, FLIPR
readout.type: EC50

Query: Note EC50 for the molecule shown: O=C(Cc1cc(F)cc(F)c1)Nn1nc(-c2cccc(Cl)c2)c2ccccc2c1=O
Reply: 100 to 500 nM

Query: Note EC50 for the molecule shown: O=C(CC12CC3CC(CC(Br)(C3)C1)C2)Nn1nc(-c2ccccc2)c2ccsc2c1=O
Reply: > 10000 nM

Query: Note EC50 for the molecule shown: O=C(CC1CC2CCC1C2)Nn1nc(-c2ccc(Cl)cc2)c2ccccc2c1=O (racemic)
Reply: < 100 nM

Query: Note EC50 for the molecule shown: CS(=O)(=O)c1ccc(CC(=O)Nn2nc(C(F)(F)F)c3ccccc3c2=O)cc1
Reply: > 10000 nM

====

assay.target: KCNQ 2/3 channels (HEK293 cells stably expressing human KCNQ2 and KCNQ3 subunits) (Homo sapiens, UniProt O43525+O43526)
Construct: expressed in transfected cells; host or cells: HEK293
protocol.text: KCNQ2/3 channel activation, thallium flux FLIPR assay with BTC-AM dye
Assay type: cell-based
condition.summary: HEK293; maximum response relative to the response produced by 10 μM retigabine (set at 100%); read-out: Max. %
readout.type: Emax (%)
Dear colleague, please return just the value in %, with no unit written.

Would you please look over these solved cases?
compound: O=C(Cc1cc(F)cc(F)c1)Nn1nc(-c2ccc(Cl)cc2)c2ccccc2c1=O
Emax [%]: 128

compound: O=C(CC1CCCC1)Nn1nc(-c2ccc(Cl)cc2)c2ccccc2c1=O
Emax [%]: 138

compound: O=C(Cc1ccc(Cl)cc1)Nn1nc(Cc2ccc(Cl)cc2)c2ccccc2c1=O
Emax [%]: 101

compound: O=C(CC12CC3CC(CC(C3)C1)C2)Nn1nc(-c2ccc(Cl)cc2)c2c(F)ccc(F)c2c1=O
Emax [%]: 178

compound: O=C(Cc1cc(F)cc(F)c1)Nn1nc(-c2ccccc2)c2ccsc2c1=O
Emax [%]: 140

Query: Note Emax for the compound shown: O=C(Cc1ccc(Cl)cc1Cl)Nn1nc(-c2ccccc2)c2ccccc2c1=O
Reply: 13

Query: Note Emax for the compound shown: CC(C)(C)c1nn(NC(=O)CC2CC3CCC2C3)c(=O)c2ccccc12 (racemic)
Reply: 160

Query: Note Emax for the compound shown: O=C(CC1CC2CCC1C2)Nn1nc(-c2ccc(F)cc2)c2ccccc2c1=O (racemic)
Reply: 150

====

assay.target: KCNQ 2/3 channels (HEK293 cells stably expressing human KCNQ2 and KCNQ3 subunits) (Homo sapiens, UniProt O43525+O43526)
Construct: expressed in transfected cells; host or cells: HEK293
protocol.text: KCNQ2/3 channel activation, thallium flux FLIPR assay with BTC-AM dye
Assay type: cell-based
condition.summary: HEK293; maximum response relative to the response produced by 10 μM retigabine (set at 100%); read-out: Max. %
readout.type: Emax (%)
Dear colleague, please return just the value in %, with no unit written.

Would you please look over these solved cases?
compound: O=C(Cc1cc(F)cc(F)c1)Nn1nc(-c2ccccc2)c2ccccc2c1=O
readout.type: Emax
endpoint.value: 189

compound: O=C(Cc1ccc(Cl)cc1)Nn1nc(C2CCC2)c2ccccc2c1=O
readout.type: Emax
endpoint.value: 124

Query: Note Emax for the compound shown: CC(C)(C)c1nn(NC(=O)CC(C)(C)c2ccccc2)c(=O)c2ccccc12
Reply: 157

Query: Note Emax for the compound shown: O=C(CC1(C(F)(F)F)CCCC1)Nn1nc(Cc2ccccc2)c2ccccc2c1=O
Reply: 20

Query: Note Emax for the compound shown: Cc1ccc(-c2nn(NC(=O)CC34CC5CC(CC(C5)C3)C4)c(=O)c3ccccc23)cc1C
Reply: 155

The origin of these recorded values is patent US8629143B2.
